# credit: ChEMBL document CHEMBL5291721

# ASSAYED_TARGET: 5-hydroxytryptamine receptor 2B (Homo sapiens); also: assay procedure not described here
# Sequence (P41595 whole entry): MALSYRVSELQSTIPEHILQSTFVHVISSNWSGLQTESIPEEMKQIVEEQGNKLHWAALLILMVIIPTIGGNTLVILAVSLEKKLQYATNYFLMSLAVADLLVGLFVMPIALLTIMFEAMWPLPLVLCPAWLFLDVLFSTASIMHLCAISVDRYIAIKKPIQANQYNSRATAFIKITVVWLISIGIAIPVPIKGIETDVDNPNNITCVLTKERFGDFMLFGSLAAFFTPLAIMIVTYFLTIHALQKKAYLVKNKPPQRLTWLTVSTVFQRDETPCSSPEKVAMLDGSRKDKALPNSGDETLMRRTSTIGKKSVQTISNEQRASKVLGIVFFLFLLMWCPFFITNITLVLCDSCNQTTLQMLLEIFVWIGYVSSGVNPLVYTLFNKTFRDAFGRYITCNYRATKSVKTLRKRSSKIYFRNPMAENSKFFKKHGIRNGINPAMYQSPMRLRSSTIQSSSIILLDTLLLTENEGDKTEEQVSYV
METRIC: AC50

1. OCCN(CCO)c1nc(N2CCCCC2)c2nc(N(CCO)CCO)nc(N3CCCCC3)c2n1 [DIPYRIDAMOLE] | > 30 µM
2. Cc1nnc2n1-c1ccc(Cl)cc1C(c1ccccc1)=NC2 [ALPRAZOLAM] | > 10 µM
3. NCC1(CC(=O)O)CCCCC1 [GABAPENTIN] | > 10 µM

###

Recorded AC50, one value per entry.
# ASSAYED_TARGET: Prostaglandin G/H synthase 1 (Rattus norvegicus); also: assay procedure not described here
# Sequence (Q63921 whole entry): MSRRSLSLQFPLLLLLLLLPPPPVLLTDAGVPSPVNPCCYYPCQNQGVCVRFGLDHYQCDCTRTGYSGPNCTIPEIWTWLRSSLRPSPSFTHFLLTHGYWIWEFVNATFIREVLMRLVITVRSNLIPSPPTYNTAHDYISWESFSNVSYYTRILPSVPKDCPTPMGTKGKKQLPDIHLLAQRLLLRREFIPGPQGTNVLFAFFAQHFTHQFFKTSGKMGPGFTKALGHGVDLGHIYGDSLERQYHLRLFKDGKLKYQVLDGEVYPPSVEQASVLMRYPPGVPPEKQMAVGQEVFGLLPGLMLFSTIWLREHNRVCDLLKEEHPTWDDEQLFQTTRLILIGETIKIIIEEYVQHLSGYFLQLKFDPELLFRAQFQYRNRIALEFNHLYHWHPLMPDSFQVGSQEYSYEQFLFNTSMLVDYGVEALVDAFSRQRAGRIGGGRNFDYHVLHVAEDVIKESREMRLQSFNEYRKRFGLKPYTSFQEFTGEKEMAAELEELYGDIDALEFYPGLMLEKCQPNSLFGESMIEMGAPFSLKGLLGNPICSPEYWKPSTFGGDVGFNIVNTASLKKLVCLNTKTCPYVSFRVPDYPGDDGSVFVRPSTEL
# Type: functional
Where a SMILES comes first, the peptide text is derived from it.
METRIC: AC50

1) CC(=O)Oc1cccc2c1C(=O)c1c(OC(C)=O)cc(C(=O)O)cc1C2=O | 0.9 µM
2) CN(C)CCOCC(=O)NC12CC3CC(CC(C3)C1)C2 | > 30 µM
3) C[C@H](N)C(=O)N[C@@H](CCC(N)=O)C(=O)O [ALANYL GLUTAMINE] (H-Ala-Gln-OH) | > 30 µM
4) CC(C)(C)NCC(O)COc1cccc2c1CC(O)C(O)C2 (stereo unspecified) | > 10 µM
5) CN1CC2c3ccccc3Oc3ccc(Cl)cc3C2C1 (stereo unspecified) | > 30 µM
6) Cc1c(C)c2c(c(C)c1O)CCC(C)(COc1ccc(CC3SC(=O)NC3=O)cc1)O2 (stereo unspecified) | 22.9 µM
7) CCc1ccc(C(=O)C(C)CN2CCCCC2)cc1 (stereo unspecified) | > 30 µM
8) CC(C)NCC(O)COc1ccc(CC(N)=O)cc1 (stereo unspecified) | > 30 µM
9) CCN(C(C)=O)c1cccc(-c2ccnc3c(C#N)cnn23)c1 | > 30 µM
10) N=C(N)NC(=O)c1nc(Cl)c(N)nc1N [AMILORIDE] | > 30 µM
11) CCCCC[C@H](O)CC[C@@H]1[C@H]2Cc3cccc(OCC(=O)O)c3C[C@H]2C[C@H]1O | > 30 µM
12) C[C@]12C=CC(=O)C=C1C(Cl)=C[C@@H]1[C@@H]2[C@@H](O)C[C@@]2(C)[C@H]1CC[C@]2(O)C(=O)CO | > 30 µM
13) O=C1CN=C(c2ccccc2Cl)c2cc([N+](=O)[O-])ccc2N1 | > 30 µM
14) CCCCOC(=O)C(=O)Nc1cccc(-c2nnn[nH]2)c1 | > 30 µM
15) CCC1(CC)C(=O)NC(=O)N(C)C1=O | > 10 µM
16) CC1(C)O[C@@H]2C[C@H]3[C@@H]4CCC5=CC(=O)C=C[C@]5(C)[C@@]4(F)[C@@H](O)C[C@]3(C)[C@]2(C(=O)CO)O1 [TRIAMCINOLONE ACETONIDE] | > 30 µM
17) Cc1nnc2n1-c1ccc(Cl)cc1C(c1ccccc1)=NC2 | > 30 µM
18) O=C1[C@@H]2[C@H]3CC[C@H](C3)[C@@H]2C(=O)N1C[C@@H]1CCCC[C@H]1CN1CCN(c2nsc3ccccc23)CC1 | > 30 µM
19) O=C(O)c1nn(Cc2ccc(Cl)cc2Cl)c2ccccc12 | > 30 µM
20) C[C@@H](Cc1ccccc1)N(C)Cc1ccccc1 | > 10 µM
21) OCC(O)COc1ccc(Cl)cc1 (stereo unspecified) | > 10 µM
22) NCC1(CC(=O)O)CCCCC1 | > 30 µM
23) COc1cccc2c1C(=O)c1c(O)c3c(c(O)c1C2=O)C[C@@](O)(C(=O)CO)C[C@@H]3O[C@H]1C[C@H](N)[C@H](O)[C@H](C)O1 | > 30 µM
24) O=C(c1ccccc1)c1ccc2n1CCC2C(=O)O (stereo unspecified) | 0.0239 µM
25) C[C@]12CCC(=O)C=C1[C@@H]1C[C@@H]1[C@H]1[C@@H]3[C@@H]4C[C@@H]4[C@@]4(CCC(=O)O4)[C@@]3(C)CC[C@@H]12 | > 30 µM
26) CCOc1ccccc1OCCN[C@H](C)Cc1ccc(OC)c(S(N)(=O)=O)c1 | > 30 µM

###

Measured AC50 of individual entries
# ASSAYED_TARGET: Vasopressin V1a receptor (Homo sapiens, UniProt P37288); also: assay procedure not described here
# Sequence (P37288 whole entry): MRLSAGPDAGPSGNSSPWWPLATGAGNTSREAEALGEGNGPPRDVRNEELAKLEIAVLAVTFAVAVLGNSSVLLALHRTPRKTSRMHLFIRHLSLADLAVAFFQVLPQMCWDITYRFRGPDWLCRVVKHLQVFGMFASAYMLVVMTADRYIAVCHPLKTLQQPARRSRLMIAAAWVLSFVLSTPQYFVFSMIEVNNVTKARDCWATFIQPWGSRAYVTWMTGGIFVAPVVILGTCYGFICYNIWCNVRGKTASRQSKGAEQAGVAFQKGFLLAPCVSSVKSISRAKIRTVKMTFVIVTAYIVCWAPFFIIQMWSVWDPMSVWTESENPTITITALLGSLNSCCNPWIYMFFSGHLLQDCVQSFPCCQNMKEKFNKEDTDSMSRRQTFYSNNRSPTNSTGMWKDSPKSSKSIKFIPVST
METRIC: AC50

1) CCOC(=O)[C@H](CCc1ccccc1)N[C@@H](C)C(=O)N1Cc2ccccc2C[C@H]1C(=O)O | > 10 µM
2) CN(C)CCOC(c1ccc(Cl)cc1)c1ccccn1 (centres undefined) [CARBINOXAMINE] | > 30 µM
3) COc1ccc(C(Cl)=C(c2ccc(OC)cc2)c2ccc(OC)cc2)cc1 [CHLOROTRIANISENE] | > 30 µM
4) C=C(c1ccccc1OCc1cccc(Cl)c1)n1ccnc1 [CROCONAZOLE] | > 30 µM
5) C[C@H](Nc1ncnc2[nH]cnc12)c1cc2cccc(Cl)c2c(=O)n1-c1ccccc1 [DUVELISIB] | > 30 µM
6) CCN(CC)CCCN(c1ccccc1)C1Cc2ccccc2C1 [APRINDINE] | > 30 µM
7) CC1=C(CC(=O)O)c2cc(F)ccc2/C1=C\c1ccc([S+](C)[O-])cc1 (centres undefined) | > 30 µM
8) CC(C(=O)O)c1ccc(C(=O)c2ccccc2)s1 (centres undefined) [TIAPROFENIC ACID] | > 10 µM
9) CN(C)CCC=C1c2ccccc2CCc2ccccc21 [AMITRIPTYLINE] | > 30 µM
10) CCN(CC)CC(=O)Nc1c(C)cccc1C [LIDOCAINE] | > 10 µM
11) CC1NCCOC1c1ccccc1 (centres undefined) [PHENMETRAZINE] | > 30 µM
12) Cc1nnc2n1-c1ccc(Cl)cc1C(c1ccccc1)=NC2 [ALPRAZOLAM] | > 10 µM
13) CCOC(=O)Nc1ccc(NCc2ccc(F)cc2)nc1N [FLUPIRTINE] | > 30 µM
14) O=C(C[S+]([O-])Cc1ccco1)NC/C=C\COc1cc(CN2CCCCC2)ccn1 (centres undefined) [LAFUTIDINE] | > 10 µM
15) Oc1cc(Cl)ccc1Oc1ccc(Cl)cc1Cl [TRICLOSAN] | > 30 µM
16) CCN(CC)Cc1nccn1-c1ccc([N+](=O)[O-])cc1C(=O)c1ccccc1Cl [NIZOFENONE] | > 30 µM
17) C[C@H](CCC(=O)O)[C@H]1CC[C@H]2[C@@H]3[C@H](O)C[C@@H]4C[C@H](O)CC[C@]4(C)[C@H]3CC[C@]12C [CHENODIOL] | > 30 µM
18) Nc1c2c(nc3ccccc13)CCCC2O (centres undefined) [VELNACRINE] | > 30 µM
19) CCCCCCOC(=O)NC(=N)c1ccc(NCc2nc3cc(C(=O)N(CCC(=O)OCC)c4ccccn4)ccc3n2C)cc1 [DABIGATRAN ETEXILATE] | > 30 µM
20) N=C(N)NC(=O)c1nc(Cl)c(N)nc1N [AMILORIDE] | > 30 µM
21) O=C(O)COC(=O)Cc1ccccc1Nc1c(Cl)cccc1Cl [ACECLOFENAC] | > 30 µM
22) CCCCOC(=O)C(=O)Nc1cccc(-c2nnn[nH]2)c1 [TAZANOLAST] | > 30 µM
23) Cc1c(C)c2c(c(C)c1O)CCC(C)(COc1ccc(CC3SC(=O)NC3=O)cc1)O2 (centres undefined) [TROGLITAZONE] | > 30 µM
24) CCOCC(O)COc1ccc(NC(=O)CC[S+](C)C)cc1 (centres undefined) | > 30 µM
25) O=C1CN=C(c2ccccc2Cl)c2cc([N+](=O)[O-])ccc2N1 [CLONAZEPAM] | > 10 µM
26) CCN1C(=O)NC(c2ccccc2)C1=O (centres undefined) [ETHOTOIN] | > 30 µM
27) C[C@H](Cn1cnc2c(N)ncnc21)OCP(=O)(O)O [TENOFOVIR ANHYDROUS] | > 30 µM
28) CN(C)CCOC(=O)C(c1ccccc1)C1(O)CCCC1 (centres undefined) [CYCLOPENTOLATE] | > 10 µM
29) c1cnc2cc3c(cc2n1)[C@@H]1CNC[C@H]3C1 [VARENICLINE] | > 30 µM

###

AC50, Equilibrative nucleoside transporter 1 (Homo sapiens): measured values
METRIC: AC50

1) CCN(CC)CC(=O)Nc1c(C)cccc1C [LIDOCAINE] | > 30 µM
2) c1cnc2cc3c(cc2n1)[C@@H]1CNC[C@H]3C1 [VARENICLINE] | > 30 µM
3) CN(C)CCOCC(=O)NC12CC3CC(CC(C3)C1)C2 [TROMANTADINE] | > 30 µM
4) CS(=O)(=O)NC(=O)CCC/C=C\C[C@H]1C(=O)C[C@@H](O)[C@@H]1/C=C/[C@@H](O)COc1ccccc1 [SULPROSTONE] | > 30 µM
5) COc1ccc(C(Cl)=C(c2ccc(OC)cc2)c2ccc(OC)cc2)cc1 [CHLOROTRIANISENE] | > 30 µM
6) CC(=O)Oc1ccccc1C(=O)O [ASPIRIN] | > 30 µM
7) C[C@@H](Cc1ccccc1)N(C)Cc1ccccc1 [BENZPHETAMINE] | > 30 µM
8) CCC(=O)[C@@]1(C)[C@H](C)C[C@H]2[C@@H]3CCC4=CC(=O)C=C[C@]4(C)[C@H]3[C@@H](O)C[C@@]21C [RIMEXOLONE] | > 10 µM
9) CCCO[C@H]1[C@@H]([C@@H](COCc2ccc(Cl)cc2)OCc2ccc(Cl)cc2)OC(OCC)[C@@H]1O (stereo partly specified) [CLOBENOSIDE] | > 30 µM
10) CCC1(CC)C(=O)NC(=O)N(C)C1=O [METHARBITAL] | > 10 µM
11) C[C@H](CS)C(=O)N1CCC[C@H]1C(=O)O [CAPTOPRIL] | > 30 µM
12) O=c1[nH]cc(F)c(=O)[nH]1 [FLUOROURACIL] | > 30 µM
13) CCCCC[C@H](O)CC[C@@H]1[C@H]2Cc3cccc(OCC(=O)O)c3C[C@H]2C[C@H]1O [TREPROSTINIL] | > 30 µM
14) CC(C)C[C@H](NC(=O)[C@H](Cc1ccccc1)NC(=O)c1cnccn1)B(O)O [BORTEZOMIB] | > 30 µM
15) CCOc1cc2ncc(C#N)c(Nc3ccc(OCc4ccccn4)c(Cl)c3)c2cc1NC(=O)/C=C/CN(C)C [NERATINIB] | 1.96 µM
16) CCOC(=O)C1=C(C)NC(C)=C(C(=O)OC)C1c1cccc(Cl)c1Cl (stereo unspecified) [FELODIPINE] | 28 µM
17) C=CC1=C(C(=O)O)N2C(=O)[C@@H](NC(=O)/C(=N\O)c3csc(N)n3)[C@H]2SC1 | > 30 µM
18) CC(=O)N1CCN(c2ccc(OCC3COC(Cn4ccnc4)(c4ccc(Cl)cc4Cl)O3)cc2)CC1 (stereo unspecified) [KETOCONAZOLE] | 35.2 µM
19) CCN(CC)CCn1c(=O)c(Cc2ccc(OC)cc2)nc2ccccc21 [CAROVERINE] | > 30 µM
20) CN(C)CCC=C1c2ccccc2CCc2ccccc21 [AMITRIPTYLINE] | > 30 µM
21) CN(C)CCC(O)(c1ccccc1)c1ccccc1Cl (stereo unspecified) [CHLOPHEDIANOL] | > 10 µM
